- Tested on: SK-MEL-5 melanoma
- Protocol Summary: NCI tumour cell line growth inhibition, 48 h
Quantity Name: TGI (µM)
Write the value in µM as a bare number.

Examples with answers:
>>> readout_value("COc1ccc(C(=O)c2cc(C)c(OC)c(C)c2)cc1OC(=O)CCl")
0.459
>>> readout_value("COc1ccc(-c2[nH]c3ccc(OC)cc3c2/C=C(\\C#N)S(=O)(=O)c2ccccc2)cc1")
2.39
>>> readout_value("CC(=O)O[C@H]1CCC2[C@@H]3CC[C@]4(C)CC(=O)C=C[C@]4(C)C3CC[C@@]21C (stereo partly specified)")
28.3
>>> readout_value("COc1ccc(C(=O)c2cc(OC)c(OC)c(OC)c2)cc1/C=C/C(=O)c1ccc(F)cc1")
15.5

Return reported TGI; argument: `Cc1cc(C(=O)Nc2ccc3cc(CN4CCOCC4)ccc3n2)c(C)n1-c1ccccc1`
0.799

One more molecule: Cc1nnc(NS(=O)(=O)c2ccc(N=Nc3cc(N=Nc4ccc(S(=O)(=O)Nc5nnc(C)s5)cc4)c4c(NC(=O)C(Cl)Cl)cccc4c3OC(=O)C(Cl)Cl)cc2)s1 (tested in a mixture with another compound)
75.8

// query: `Oc1c(N2CCOCC2)cc(-c2cc(N3CCOCC3)c(O)c3ccccc23)c2ccccc12`
3.35

Check `CSc1nnc(SC)nn1` too.
29.6

Ok, now `Cc1cc(NC(=S)SCc2ccc(F)cc2)c([N+](=O)[O-])cc1C`
26

// next record `CCOC(=O)c1c(N2CCOCC2)[nH]c(=O)c(C(c2c(Cl)cccc2Cl)c2c(O)c(C(=O)OCC)c(N3CCOCC3)[nH]c2=O)c1O`
16.1

What do you get for `Nc1ccccc1C#C/C=C\C#Cc1ccccc1N` ?
17.5
